procedureSummary: Phase I metabolism kinetics (parent toxin loss) in NADPH-fortified porcine liver microsomes, LC-MS/MS
Assay type: in vitro ADME, pig
condition: female, Large White (German Edelschwein), pig, liver microsomes, pH 7.4; porcine LMs 2 mg protein/mL, NADPH, within 10 min, Michaelis–Menten model; read-out: Km (Michaelis constant)
measuredAttribute: Km (µM)
Answer format: numeric, µM implied, no suffix.

# Km lookup, item Cc1cc(O)cc2oc(=O)c3c(O)cc(O)cc3c12 672

###

procedureSummary: Phase I metabolism kinetics (parent toxin loss) in NADPH-fortified human liver microsomes, LC-MS/MS
Type: in vitro ADME
condition: male, human, liver microsomes, pH 7.4, human LMs, Michaelis–Menten model, ratio Vmax/Km; read-out: CLint (intrinsic clearance)
measuredAttribute: microsomal CLint (µL/min/mg)
Answer with a number only, understood to be in µL/min/mg.

>  <compound>
Cc1cc(O)cc2oc(=O)c3c(O)cc(O)cc3c12 [AOH, alternariol]

>  <unit>
µL/min/mg

>  <microsomal CLint>
25.8

$$$$

# input for lookup
Would you mind telling me what microsomal CLint value was observed for COc1cc(O)c2c(=O)oc3cc(O)cc(C)c3c2c1 [AME, alternariol 9-O-monomethyl ether] ? 26.3

###

procedureSummary: Phase I metabolism kinetics (parent toxin loss) in NADPH-fortified rat liver microsomes, LC-MS/MS
Format: in vitro ADME, Sprague–Dawley rat
condition: male, Sprague–Dawley, liver microsomes, pH 7.4; rat LMs 1 mg protein/mL, NADPH, within 10 min, Michaelis–Menten model; read-out: Km (Michaelis constant)
measuredAttribute: Km (µM)
State just the number; it will be interpreted in µM.

Give the measured Km of Cc1cc(O)cc2oc(=O)c3c(O)cc(O)cc3c12 . 78.7

###

// microsomal CLint lookup, one value per entry
procedureSummary: Phase I metabolism kinetics (parent toxin loss) in NADPH-fortified rat liver microsomes, LC-MS/MS
Assay type: in vitro ADME, Sprague–Dawley rat
condition: male, Sprague-Dawley, rat, liver microsomes, pH 7.4, rat LMs, Michaelis–Menten model, ratio Vmax/Km; read-out: CLint (intrinsic clearance)
Description: Pooled human LMs and pooled Sprague–Dawley rat hepatic microsomes, both originating from male donors, were purchased from Sigma-Aldrich (St. Louis, MO, USA) and Gibco, Thermo Fisher Scientific (Waltham, MA, USA), respectively. Porcine LMs were prepared according to an in-house-developed protocol based on the publication of Knights et al.[32] The liver of an approximately four-month-old female “Large White” (or “German Edelschwein”) pig was obtained from a local slaughterhouse. […]
A number alone suffices; assume µL/min/mg.

>  <compound>
COc1cc(O)c2c(=O)oc3cc(O)cc(C)c3c2c1 [AME, alternariol 9-O-monomethyl ether]

>  <microsomal CLint [µL/min/mg]>
45.2

$$$$

GET /values?readout=microsomal CLint&item= Cc1cc(O)cc2oc(=O)c3c(O)cc(O)cc3c12 [AOH, alternariol] 35.9

###

Measured microsomal CLint accompanies every entry in the list below.
procedureSummary: Phase I metabolism kinetics (parent toxin loss) in NADPH-fortified rat liver microsomes, LC-MS/MS
Type: in vitro ADME, Sprague–Dawley rat
condition: male, Sprague-Dawley, rat, liver microsomes, pH 7.4, rat LMs, linear regression, lower concentration range; read-out: CLint (intrinsic clearance)
Field: numeric (µL/min/mg). Do not append units.

>  <compound>
Cc1cc(O)cc2oc(=O)c3c(O)cc(O)cc3c12 [AOH, alternariol]

>  <measuredNumber>
29.9

$$$$

Switching to the query record.
Would you mind telling me what microsomal CLint value was observed for COc1cc(O)c2c(=O)oc3cc(O)cc(C)c3c2c1 [AME, alternariol 9-O-monomethyl ether] ? 46.2
